System: Achaea janata
Test: Antifeedant activity against Achaea janata by conventional no-choice disk method
Type: functional
The source made the active and inactive calls. The rule behind the calls is not given here.
MEASURED_ATTRIBUTE: ED50

compound=COc1c(CC=C(C)C)c2c(c(O)c1C(=O)C(=O)c1ccc(O)cc1)C=CC(C)(C)O2 measured_attribute=ED50 experimental_result="3.31 microg/cm2"
compound="O=c1c(-c2ccc(O)cc2)coc2cc(O)cc(O)c12 [GENISTEIN]" measured_attribute=ED50 experimental_result="3.22 microg/cm2"
compound="COc1c2c(c(CC=C(C)C)c(O)c1C(=O)C(=O)c1ccc(O)cc1)OC(C)(C)C=C2 [Derrisdione A]" measured_attribute=ED50 experimental_result="7.18 microg/cm2"
compound="COc1c(CC=C(C)C)c2c(c3oc(=O)c(-c4ccc(O)cc4)c(O)c13)C=CC(C)(C)O2 [SCANDENIN]" measured_attribute=ED50 experimental_result="3.85 microg/cm2"
compound="COc1ccc(-c2c(O)c3c(OC)c(CC=C(C)C)c4c(c3oc2=O)C=CC(C)(C)O4)cc1 [SCANDENIN A]" measured_attribute=ED50 experimental_result=inactive
compound="CC(C)=CCc1cc(-c2coc3cc(O)c(CC=C(C)C)c(O)c3c2=O)ccc1O [LUPALBIGENIN]" measured_attribute=ED50 experimental_result=inactive

====

Tested on: Achaea janata
Assay: Insecticidal activity against Achaea janata assessed as pupal duration at 2 ug/larva administered through topical application (reference value: 10.3 +/- 0.1 days)
Format: functional
MEASURED_ATTRIBUTE: Time

compound="CC(C)=CCc1cc(-c2coc3cc(O)c(CC=C(C)C)c(O)c3c2=O)ccc1O [LUPALBIGENIN]" target_system="Achaea janata" measured_attribute=Time experimental_result="11.4 days"
compound="C[C@@H]1O[C@@H](OC[C@H]2O[C@@H](Oc3cc(O)c4c(=O)c(-c5ccc(O)cc5)coc4c3)[C@H](O)[C@@H](O)[C@@H]2O)[C@H](O)[C@H](O)[C@H]1O [SPHAEROBIOSIDE]" target_system="Achaea janata" measured_attribute=Time experimental_result="13.3 days"
compound="CC(C)=CCc1c2c(c3occ(-c4ccc(O)cc4)c(=O)c3c1O)C=CC(C)(C)O2 [OSAJIN]" target_system="Achaea janata" measured_attribute=Time experimental_result="13.8 days"
compound="COc1c(CC=C(C)C)c2c(c3oc(=O)c(-c4ccc(O)cc4)c(O)c13)C=CC(C)(C)O2 [SCANDENIN]" target_system="Achaea janata" measured_attribute=Time experimental_result="11.2 days"

====

System: Achaea janata
Assay: Antifeedant activity against Achaea janata by conventional no-choice disk method
Type: functional
Activity calls are given as the source filed them. No cut-off for these calls is given here.
MEASURED_ATTRIBUTE: ED50

compound=CC(C)=CCc1c2c(c3occ(-c4ccc(O)cc4)c(=O)c3c1O)C=CC(C)(C)O2 experimental_result="3.18 microg/cm2"
compound=C/C=C(\C)C(=O)O[C@H]1C[C@@H](OC(C)=O)[C@@]2(C(=O)OC)CO[C@H]3[C@@H](O)[C@@](C)([C@]45O[C@@]4(C)[C@@H]4C[C@H]5O[C@@H]5OC=C[C@@]54O)[C@H]4[C@]1(CO[C@]4(O)C(=O)OC)[C@@H]32 experimental_result="0.72 microg/cm2"
compound=CC(C)=CCc1c2c(c(O)c3c(=O)c(-c4ccc(O)cc4)coc13)C=CC(C)(C)O2 experimental_result=inactive
compound=COc1c(CC=C(C)C)c2c(c3occ(-c4ccc(O)cc4)c(=O)c13)C=CC(C)(C)O2 experimental_result=inactive
compound=CC(C)=CCc1c2c(c(O)c3c(=O)cc(-c4ccc(O)cc4)oc13)C=CC(C)(C)O2 experimental_result=inactive
compound="C[C@@H]1O[C@@H](OC[C@H]2O[C@@H](Oc3cc(O)c4c(=O)c(-c5ccc(O)cc5)coc4c3)[C@H](O)[C@@H](O)[C@@H]2O)[C@H](O)[C@H](O)[C@H]1O [SPHAEROBIOSIDE]" experimental_result="3.37 microg/cm2"

====

Tested on: Achaea janata
Experiment: Insecticidal activity against Achaea janata assessed as pupal duration at 2 ug/larva administered through topical application (reference value: 10.3 +/- 0.1 days)
Format: functional
MEASURED_ATTRIBUTE: Time (days)

structure_smiles_string=COc1c(CC=C(C)C)c2c(c(O)c1C(=O)C(=O)c1ccc(O)cc1)C=CC(C)(C)O2 measured_attribute=Time units_label=days experimental_result=13
structure_smiles_string=CC(C)=CCc1c2c(c(O)c3c(=O)cc(-c4ccc(O)cc4)oc13)C=CC(C)(C)O2 measured_attribute=Time units_label=days experimental_result=10.7
structure_smiles_string=O=c1c(-c2ccc(O)cc2)coc2cc(O)cc(O)c12 measured_attribute=Time units_label=days experimental_result=13.1
structure_smiles_string=CC(C)=CCc1c2c(c(O)c3c(=O)c(-c4ccc(O)cc4)coc13)C=CC(C)(C)O2 measured_attribute=Time units_label=days experimental_result=11.7
structure_smiles_string=COc1c(CC=C(C)C)c2c(c3occ(-c4ccc(O)cc4)c(=O)c13)C=CC(C)(C)O2 measured_attribute=Time units_label=days experimental_result=11.8
structure_smiles_string=COc1ccc(-c2c(O)c3c(OC)c(CC=C(C)C)c4c(c3oc2=O)C=CC(C)(C)O4)cc1 measured_attribute=Time units_label=days experimental_result=10.5
structure_smiles_string=COc1c2c(c(CC=C(C)C)c(O)c1C(=O)C(=O)c1ccc(O)cc1)OC(C)(C)C=C2 measured_attribute=Time units_label=days experimental_result=10.9
structure_smiles_string=C/C=C(\C)C(=O)O[C@H]1C[C@@H](OC(C)=O)[C@@]2(C(=O)OC)CO[C@H]3[C@@H](O)[C@@](C)([C@]45O[C@@]4(C)[C@@H]4C[C@H]5O[C@@H]5OC=C[C@@]54O)[C@H]4[C@]1(CO[C@]4(O)C(=O)OC)[C@@H]32 measured_attribute=Time units_label=days experimental_result=10.3

====

Tested on: Achaea janata
Test: Toxicity against Achaea janata at 10 ug/cm2 after 24 hr by leaf disk method
Assay type: functional
Measured Activity, listed per entry.
MEASURED_ATTRIBUTE: Activity (%)

compound="COc1c(CC=C(C)C)c2c(c3oc(=O)c(-c4ccc(O)cc4)c(O)c13)C=CC(C)(C)O2 [SCANDENIN]" measured_attribute=Activity units_label=% experimental_result=86.4
compound=COc1c(CC=C(C)C)c2c(c(O)c1C(=O)C(=O)c1ccc(O)cc1)C=CC(C)(C)O2 measured_attribute=Activity units_label=% experimental_result=100
compound="C[C@@H]1O[C@@H](OC[C@H]2O[C@@H](Oc3cc(O)c4c(=O)c(-c5ccc(O)cc5)coc4c3)[C@H](O)[C@@H](O)[C@@H]2O)[C@H](O)[C@H](O)[C@H]1O [SPHAEROBIOSIDE]" measured_attribute=Activity units_label=% experimental_result=97.8
compound="CC(C)=CCc1c2c(c3occ(-c4ccc(O)cc4)c(=O)c3c1O)C=CC(C)(C)O2 [OSAJIN]" measured_attribute=Activity units_label=% experimental_result=98.2
compound="CC(C)=CCc1c2c(c(O)c3c(=O)cc(-c4ccc(O)cc4)oc13)C=CC(C)(C)O2 [LAXIFOLIN]" measured_attribute=Activity units_label=% experimental_result=0
compound="COc1c(CC=C(C)C)c2c(c3occ(-c4ccc(O)cc4)c(=O)c13)C=CC(C)(C)O2 [SCANDINONE]" measured_attribute=Activity units_label=% experimental_result=14.6
compound="COc1ccc(-c2c(O)c3c(OC)c(CC=C(C)C)c4c(c3oc2=O)C=CC(C)(C)O4)cc1 [SCANDENIN A]" measured_attribute=Activity units_label=% experimental_result=0
